Listing: TD50 of selected compounds
- protocol: Toxicity in ip dosed albino Sprague-Dawley rat assessed as behavioral changes measured at 0.25 to 4 hrs
- Assay type: organism-based
- conditionSet: in vivo

# count of solved cases: 7
Cl.NCc1ccc(OCc2cccc(OC(F)(F)F)c2)cc1: > 30 mg/kg
Cl.NCc1ccc(OCc2ccccc2)cc1: > 50 mg/kg
Cl.NCc1ccc(OCc2ccc(F)cc2)cc1: > 30 mg/kg
Cl.NCc1ccc(OCc2ccc(OC(F)(F)F)cc2)cc1: > 50 mg/kg
Cl.NCc1ccc(OCc2ccccc2F)cc1: > 50 mg/kg
Cl.NCc1ccc(OCc2ccc(Cl)cc2)cc1: > 30 mg/kg
Cl.NCc1ccc(OCc2cccc(Cl)c2)cc1: > 30 mg/kg

// switching to the query compound
Requested read-out: TD50. Entry: Cl.NCc1ccc(OCc2cccc(F)c2)cc1
> 30 mg/kg

----------
- experimentalSystem: UniProt:Q01959
- Sequence (Q01959 whole entry): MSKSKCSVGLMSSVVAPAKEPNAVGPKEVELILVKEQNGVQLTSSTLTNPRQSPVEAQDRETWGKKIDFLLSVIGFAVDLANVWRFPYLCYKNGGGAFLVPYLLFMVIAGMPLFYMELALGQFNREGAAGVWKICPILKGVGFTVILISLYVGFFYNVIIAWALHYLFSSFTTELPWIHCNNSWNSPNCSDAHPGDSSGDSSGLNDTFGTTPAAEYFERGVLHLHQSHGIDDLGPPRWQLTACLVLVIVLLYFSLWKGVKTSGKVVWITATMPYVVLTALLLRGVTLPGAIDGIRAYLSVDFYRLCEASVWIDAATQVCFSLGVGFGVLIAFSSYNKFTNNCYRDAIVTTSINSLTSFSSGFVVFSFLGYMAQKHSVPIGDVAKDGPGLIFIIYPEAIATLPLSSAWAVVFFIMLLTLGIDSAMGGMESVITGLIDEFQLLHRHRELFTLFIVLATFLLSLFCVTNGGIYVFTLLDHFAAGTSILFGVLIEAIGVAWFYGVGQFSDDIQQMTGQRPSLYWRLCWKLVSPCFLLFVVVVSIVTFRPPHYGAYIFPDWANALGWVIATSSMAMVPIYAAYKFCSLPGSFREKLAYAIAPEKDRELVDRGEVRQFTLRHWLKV
- protocol: Inhibition of DAT (unknown origin) at 10 uM relative to control
measuredParameter: inhibition
// unit must come after the numeric part

# count of solved cases: 8
Cl.NCc1ccc(OCc2cccc(OC(F)(F)F)c2)cc1: 45.5%
Cl.NCc1ccc(OCc2ccc(F)cc2)cc1: 48.2%
Cl.NCc1ccc(OCc2ccc(Cl)cc2)cc1: 75.7%
Cl.NCc1ccc(OCc2cccc(Cl)c2)cc1: 84.1%
Cl.NCc1ccc(OCc2ccccc2OC(F)(F)F)cc1: 50.7%
Cl.NCc1ccc(OCc2ccccc2)cc1: 72.2%
Cl.NCc1ccc(OCc2ccc(OC(F)(F)F)cc2)cc1: 70.5%
Cl.NCc1ccc(OCc2cccc(F)c2)cc1: 76.8%

// switching to the query molecule
Requested read-out: inhibition. Entry: Cl.NCc1ccc(OCc2ccccc2F)cc1
61.7%

----------
Listing: inhibition of selected compounds
- experimentalSystem: 5-hydroxytryptamine receptor 6 (Homo sapiens)
- protocol: Inhibition of 5-HT6 receptor (unknown origin) at 10 uM relative to control
// note: answer is a bare numeric in %

Cl.NCc1ccc(OCc2cccc(Cl)c2)cc1: 52.4
Cl.NCc1ccc(OCc2ccccc2F)cc1: 21.3
Cl.NCc1ccc(OCc2ccc(Cl)cc2)cc1: 50.5
Cl.NCc1ccc(OCc2ccc(F)cc2)cc1: 18.1

Requested read-out: inhibition. Entry: Cl.NCc1ccc(OCc2ccccc2)cc1
26.9

Requested read-out: inhibition. Entry: Cl.NCc1ccc(OCc2ccc(OC(F)(F)F)cc2)cc1
8.9

Requested read-out: inhibition. Entry: Cl.NCc1ccc(OCc2ccccc2OC(F)(F)F)cc1
22

Requested read-out: inhibition. Entry: Cl.NCc1ccc(OCc2cccc(F)c2)cc1
44.8

Requested read-out: inhibition. Entry: Cl.NCc1ccc(OCc2cccc(OC(F)(F)F)c2)cc1
34.3

----------
- experimentalSystem: Sodium-dependent noradrenaline transporter (Homo sapiens) (UniProt P23975)
- Sequence (P23975 whole entry): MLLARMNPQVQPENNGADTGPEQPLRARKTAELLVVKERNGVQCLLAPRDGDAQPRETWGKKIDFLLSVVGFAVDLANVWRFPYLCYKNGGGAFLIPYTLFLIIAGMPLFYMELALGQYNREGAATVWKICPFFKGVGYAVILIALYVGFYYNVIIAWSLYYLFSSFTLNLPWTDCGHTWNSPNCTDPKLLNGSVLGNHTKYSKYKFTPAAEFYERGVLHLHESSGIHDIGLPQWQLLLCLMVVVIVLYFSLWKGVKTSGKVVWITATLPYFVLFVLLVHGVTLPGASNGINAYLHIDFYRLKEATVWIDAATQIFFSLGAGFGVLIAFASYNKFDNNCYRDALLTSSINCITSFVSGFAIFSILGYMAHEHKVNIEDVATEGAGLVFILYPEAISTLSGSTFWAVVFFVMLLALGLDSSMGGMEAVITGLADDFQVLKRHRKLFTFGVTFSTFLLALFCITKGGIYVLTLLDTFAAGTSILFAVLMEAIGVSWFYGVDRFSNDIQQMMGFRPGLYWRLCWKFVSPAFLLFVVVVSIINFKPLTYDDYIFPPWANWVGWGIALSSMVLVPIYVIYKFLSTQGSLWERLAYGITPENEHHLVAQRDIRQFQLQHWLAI
- protocol: Inhibition of NET (unknown origin) at 10 uM relative to control
measuredParameter: inhibition (%)
// note: answer is a bare numeric in %

Cl.NCc1ccc(OCc2ccc(F)cc2)cc1: 59.9
Cl.NCc1ccc(OCc2ccccc2F)cc1: 61.3
Cl.NCc1ccc(OCc2ccc(OC(F)(F)F)cc2)cc1: 60.1

Requested read-out: inhibition. Entry: Cl.NCc1ccc(OCc2cccc(OC(F)(F)F)c2)cc1
58.5

# credit: ChEMBL document CHEMBL3091364
